- Protocol Description: growth inhibition, single agents and combos, ICB984, cell-based, cisplatin or BGB combos, synergistic combos for chromothripsis tumors (AID 1671451);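 further: cells exposed for 96 hours before readout; 0% = vehicle DMSO and 100% = killing by high DMSO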
- Test Parameters: ICB984 medulloblastoma cells, drug combinations, cisplatin combo, at 5 µM, stronger effect = higher value
Non-standard residues stand in square brackets, D forms with d. Residues, ends and D or L forms follow the SMILES beside them. Dolaproine = CO[C@@H]([C@@H]1CCCN1)[C@@H](C)C(=O)O; Dil = CC[C@H](C)[C@H](NC)[C@@H](CC(=O)O)OC; NMeV = CN[C@H](C(=O)O)C(C)C
Record form. Attribute: inhibition. Fill in for each entry.
Report only the number, with the unit % understood.

// query inhibition value for entry Nc1nc(NC2CC2)cc(-c2cccc(Cl)c2Cl)n1
-24

Then this molecule: Nc1ccn(C2CCC(CO)O2)c(=O)n1 (stereo unspecified)
15.2

Then this molecule: Cc1cn(C2C=CC(CO)O2)c(=O)[nH]c1=O (stereo unspecified)
-36.2

Then this molecule: O=C1C(=Cc2cccnc2)C(=O)c2ccccc21
-28.8

Then this molecule: CC[C@H](C)[C@@H]([C@@H](CC(=O)N1CCC[C@H]1[C@H](OC)[C@@H](C)C(=O)N[C@@H](Cc1ccccc1)C(=O)O)OC)N(C)C(=O)[C@@H](NC(=O)[C@@H](NC)C(C)C)C(C)C (H-[NMeV]V[Dil][Dolaproine]F-OH)
-11.7

Then this molecule: O=c1[nH]c(=O)n(C2CC(O)C(CO)O2)cc1I (stereo unspecified)
-9.03

Then this molecule: O=c1ccn(C2CC(O)C(CO)O2)c(=O)[nH]1 (stereo unspecified)
-29.4

Then this molecule: CON=C1CN(c2nc3c(cc2F)c(=O)c(C(=O)O)cn3C2CC2)CC1CN (stereo unspecified)
-12.6

Then this molecule: C[C@@H]1COCCN1c1cc(C2(S(C)(=O)=O)CC2)nc(-c2cccc3[nH]ccc23)n1
-26.9

Then this molecule: Cc1cc(C)cc(C(=O)NOCCCCCC(=O)NO)c1
-32.7

Then this molecule: Cc1ccc(NC(=O)CCCCCC(=O)Nc2ccccc2N)cc1
-6.29

Then this molecule: C#CCC(CCCCCC)C(=O)O (stereo unspecified)
-27.6

Then this molecule: Cc1cc(C#N)cc(C)c1Oc1nc(Nc2ccc(C#N)cc2)nc(N)c1Br
-4.46

Then this molecule: CC(=O)C1(O)Cc2c(O)c3c(c(O)c2C(OC2CC(N)C(O)C(C)O2)C1)C(=O)c1ccccc1C3=O (stereo unspecified)
-1.78

Then this molecule: Cn1cc(-c2cnn3c(N)c(Br)c([C@H]4CCCNC4)nc23)cn1
-5.82

Then this molecule: CC(C=CC(=O)NO)=CC(C)C(=O)c1ccc(N(C)C)cc1 (stereo unspecified)
-20.2

Then this molecule: Cn1cnc2[nH]c(=O)[nH]c(=O)c21
-13.6

Then this molecule: O=C(CCCCCCC(=O)NO)NO
-49.1

Then this molecule: C[C@@H]1O[C@@H](O[C@@H]2[C@@H](O)[C@H](OCCc3ccc(O)c(O)c3)O[C@H](CO)[C@H]2OC(=O)C=Cc2ccc(O)c(O)c2)[C@H](O)[C@H](O)[C@H]1O
-7.59

Then this molecule: O=C(CCCCCCC(=O)Nc1ccc(I)cc1)NO
-38.3

Then this molecule: CC1OC(CC(=O)O)CC2=C1C(=O)c1c(O)cccc1C2=O (stereo unspecified)
102
